studyTarget: human α1G T-type channels (Homo sapiens)
Construct: expressed in transfected cells
Sequence (O43497 whole entry): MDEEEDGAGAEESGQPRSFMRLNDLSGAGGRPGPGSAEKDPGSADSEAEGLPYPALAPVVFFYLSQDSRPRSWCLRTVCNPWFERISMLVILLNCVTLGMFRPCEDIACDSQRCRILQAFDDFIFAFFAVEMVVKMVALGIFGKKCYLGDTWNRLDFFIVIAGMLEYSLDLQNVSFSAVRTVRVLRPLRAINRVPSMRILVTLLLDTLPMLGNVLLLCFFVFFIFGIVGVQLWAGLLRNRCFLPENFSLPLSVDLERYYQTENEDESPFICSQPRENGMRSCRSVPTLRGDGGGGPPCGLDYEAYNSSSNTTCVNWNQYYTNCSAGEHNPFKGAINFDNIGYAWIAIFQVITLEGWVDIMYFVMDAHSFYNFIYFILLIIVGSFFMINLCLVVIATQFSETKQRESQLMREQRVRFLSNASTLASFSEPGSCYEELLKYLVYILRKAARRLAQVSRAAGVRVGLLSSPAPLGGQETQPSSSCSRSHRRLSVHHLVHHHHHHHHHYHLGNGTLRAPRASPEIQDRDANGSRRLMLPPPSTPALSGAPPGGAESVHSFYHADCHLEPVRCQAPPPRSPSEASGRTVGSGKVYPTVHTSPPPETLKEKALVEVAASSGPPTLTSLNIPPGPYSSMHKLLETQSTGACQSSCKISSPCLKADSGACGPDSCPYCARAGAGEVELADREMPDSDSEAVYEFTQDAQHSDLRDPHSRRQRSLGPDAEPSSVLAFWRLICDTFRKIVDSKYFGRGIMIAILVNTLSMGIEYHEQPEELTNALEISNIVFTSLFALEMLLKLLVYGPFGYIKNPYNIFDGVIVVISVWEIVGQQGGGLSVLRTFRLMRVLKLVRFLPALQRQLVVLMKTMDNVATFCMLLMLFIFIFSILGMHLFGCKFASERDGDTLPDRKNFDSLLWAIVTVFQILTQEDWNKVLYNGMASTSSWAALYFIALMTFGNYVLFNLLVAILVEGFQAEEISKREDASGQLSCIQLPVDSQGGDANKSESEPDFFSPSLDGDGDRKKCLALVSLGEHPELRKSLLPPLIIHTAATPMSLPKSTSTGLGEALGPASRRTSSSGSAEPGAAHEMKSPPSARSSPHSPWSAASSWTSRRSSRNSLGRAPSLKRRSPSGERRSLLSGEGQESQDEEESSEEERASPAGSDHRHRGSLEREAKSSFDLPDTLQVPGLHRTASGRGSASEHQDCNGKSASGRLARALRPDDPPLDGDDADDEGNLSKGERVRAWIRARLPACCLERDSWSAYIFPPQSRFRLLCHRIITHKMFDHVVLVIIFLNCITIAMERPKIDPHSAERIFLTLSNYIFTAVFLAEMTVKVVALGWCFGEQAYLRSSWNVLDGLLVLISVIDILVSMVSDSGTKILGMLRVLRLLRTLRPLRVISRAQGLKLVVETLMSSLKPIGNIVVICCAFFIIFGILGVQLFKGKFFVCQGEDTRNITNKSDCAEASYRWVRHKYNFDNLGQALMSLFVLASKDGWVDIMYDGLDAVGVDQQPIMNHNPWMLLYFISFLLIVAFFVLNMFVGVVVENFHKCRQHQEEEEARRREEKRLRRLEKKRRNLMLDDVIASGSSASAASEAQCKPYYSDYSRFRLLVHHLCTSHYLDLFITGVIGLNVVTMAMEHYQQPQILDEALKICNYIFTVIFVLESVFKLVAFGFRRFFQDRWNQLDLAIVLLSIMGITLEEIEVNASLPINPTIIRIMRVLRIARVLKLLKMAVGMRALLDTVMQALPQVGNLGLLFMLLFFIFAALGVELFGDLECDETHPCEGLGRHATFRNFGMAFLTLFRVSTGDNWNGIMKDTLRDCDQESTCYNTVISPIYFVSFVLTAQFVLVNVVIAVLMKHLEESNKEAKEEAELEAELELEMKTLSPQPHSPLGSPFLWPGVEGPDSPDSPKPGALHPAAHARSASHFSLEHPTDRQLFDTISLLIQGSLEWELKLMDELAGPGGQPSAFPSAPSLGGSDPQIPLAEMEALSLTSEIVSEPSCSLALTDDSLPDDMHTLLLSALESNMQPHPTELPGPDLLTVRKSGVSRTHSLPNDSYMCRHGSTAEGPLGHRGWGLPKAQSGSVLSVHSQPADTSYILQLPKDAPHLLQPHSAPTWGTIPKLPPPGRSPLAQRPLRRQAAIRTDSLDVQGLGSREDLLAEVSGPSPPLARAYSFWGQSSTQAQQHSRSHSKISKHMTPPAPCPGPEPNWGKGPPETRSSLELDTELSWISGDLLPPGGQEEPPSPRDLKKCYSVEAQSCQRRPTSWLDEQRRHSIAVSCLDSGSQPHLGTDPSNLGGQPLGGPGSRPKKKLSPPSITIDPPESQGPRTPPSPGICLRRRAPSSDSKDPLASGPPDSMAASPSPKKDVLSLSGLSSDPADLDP
protocolNotes: Block of α1G T-type channels, whole-cell patch clamp in HEK cells
Format: cell-based
studyConditions: inactivation protocol (voltage-dependent block); read-out: IC50 at −80 mV
pIC50: −log10 of the molar value.
assayMetric: pIC50

compound	assayMetric	recordedNumber
O=C(CC(c1ccccc1)c1ccccc1)NCC1CCN(C(c2ccccc2)c2ccc(Cl)cc2)C1 (centres unmarked) [Compound P26]	pIC50	7.38

(A) CN(CC(=O)N(c1ccccc1)c1ccccc1)CC1CCN(C(c2ccccc2)c2ccccc2)C1 (centres unmarked) [Compound P54]
(B) O=C(CC(c1ccccc1)c1ccccc1)NCC1CCN(C(c2ccccc2)c2ccccc2Cl)C1 (centres unmarked) [Compound P37]
(C) O=C(COc1ccc(F)cc1F)NCC1CCN(C(=O)CCCCC(c2ccc(F)cc2)c2ccc(F)cc2)C1 (centres unmarked) [Compound P31]
(D) O=C(CC(c1ccccc1)c1ccccc1)NCC1CCN(C(c2ccccc2)c2ccc(C(F)(F)F)cc2)C1 (centres unmarked) [Compound P39]
## Input Ordering criterion: pIC50; begin with the maximum. Your answer should be the labels, listed in the requested order.
## Output D, B, A, C
(D: 8.52, B: 7.55, A: 7.26, C: 6.71)

* * *

studyTarget: rat brain N-type calcium channel subunits (α1B+α2δ+β1b) (Rattus norvegicus, UniProt Q02294)
Construct: expressed in transfected cells; host or cells: HEK 293
Sequence (Q02294 whole entry): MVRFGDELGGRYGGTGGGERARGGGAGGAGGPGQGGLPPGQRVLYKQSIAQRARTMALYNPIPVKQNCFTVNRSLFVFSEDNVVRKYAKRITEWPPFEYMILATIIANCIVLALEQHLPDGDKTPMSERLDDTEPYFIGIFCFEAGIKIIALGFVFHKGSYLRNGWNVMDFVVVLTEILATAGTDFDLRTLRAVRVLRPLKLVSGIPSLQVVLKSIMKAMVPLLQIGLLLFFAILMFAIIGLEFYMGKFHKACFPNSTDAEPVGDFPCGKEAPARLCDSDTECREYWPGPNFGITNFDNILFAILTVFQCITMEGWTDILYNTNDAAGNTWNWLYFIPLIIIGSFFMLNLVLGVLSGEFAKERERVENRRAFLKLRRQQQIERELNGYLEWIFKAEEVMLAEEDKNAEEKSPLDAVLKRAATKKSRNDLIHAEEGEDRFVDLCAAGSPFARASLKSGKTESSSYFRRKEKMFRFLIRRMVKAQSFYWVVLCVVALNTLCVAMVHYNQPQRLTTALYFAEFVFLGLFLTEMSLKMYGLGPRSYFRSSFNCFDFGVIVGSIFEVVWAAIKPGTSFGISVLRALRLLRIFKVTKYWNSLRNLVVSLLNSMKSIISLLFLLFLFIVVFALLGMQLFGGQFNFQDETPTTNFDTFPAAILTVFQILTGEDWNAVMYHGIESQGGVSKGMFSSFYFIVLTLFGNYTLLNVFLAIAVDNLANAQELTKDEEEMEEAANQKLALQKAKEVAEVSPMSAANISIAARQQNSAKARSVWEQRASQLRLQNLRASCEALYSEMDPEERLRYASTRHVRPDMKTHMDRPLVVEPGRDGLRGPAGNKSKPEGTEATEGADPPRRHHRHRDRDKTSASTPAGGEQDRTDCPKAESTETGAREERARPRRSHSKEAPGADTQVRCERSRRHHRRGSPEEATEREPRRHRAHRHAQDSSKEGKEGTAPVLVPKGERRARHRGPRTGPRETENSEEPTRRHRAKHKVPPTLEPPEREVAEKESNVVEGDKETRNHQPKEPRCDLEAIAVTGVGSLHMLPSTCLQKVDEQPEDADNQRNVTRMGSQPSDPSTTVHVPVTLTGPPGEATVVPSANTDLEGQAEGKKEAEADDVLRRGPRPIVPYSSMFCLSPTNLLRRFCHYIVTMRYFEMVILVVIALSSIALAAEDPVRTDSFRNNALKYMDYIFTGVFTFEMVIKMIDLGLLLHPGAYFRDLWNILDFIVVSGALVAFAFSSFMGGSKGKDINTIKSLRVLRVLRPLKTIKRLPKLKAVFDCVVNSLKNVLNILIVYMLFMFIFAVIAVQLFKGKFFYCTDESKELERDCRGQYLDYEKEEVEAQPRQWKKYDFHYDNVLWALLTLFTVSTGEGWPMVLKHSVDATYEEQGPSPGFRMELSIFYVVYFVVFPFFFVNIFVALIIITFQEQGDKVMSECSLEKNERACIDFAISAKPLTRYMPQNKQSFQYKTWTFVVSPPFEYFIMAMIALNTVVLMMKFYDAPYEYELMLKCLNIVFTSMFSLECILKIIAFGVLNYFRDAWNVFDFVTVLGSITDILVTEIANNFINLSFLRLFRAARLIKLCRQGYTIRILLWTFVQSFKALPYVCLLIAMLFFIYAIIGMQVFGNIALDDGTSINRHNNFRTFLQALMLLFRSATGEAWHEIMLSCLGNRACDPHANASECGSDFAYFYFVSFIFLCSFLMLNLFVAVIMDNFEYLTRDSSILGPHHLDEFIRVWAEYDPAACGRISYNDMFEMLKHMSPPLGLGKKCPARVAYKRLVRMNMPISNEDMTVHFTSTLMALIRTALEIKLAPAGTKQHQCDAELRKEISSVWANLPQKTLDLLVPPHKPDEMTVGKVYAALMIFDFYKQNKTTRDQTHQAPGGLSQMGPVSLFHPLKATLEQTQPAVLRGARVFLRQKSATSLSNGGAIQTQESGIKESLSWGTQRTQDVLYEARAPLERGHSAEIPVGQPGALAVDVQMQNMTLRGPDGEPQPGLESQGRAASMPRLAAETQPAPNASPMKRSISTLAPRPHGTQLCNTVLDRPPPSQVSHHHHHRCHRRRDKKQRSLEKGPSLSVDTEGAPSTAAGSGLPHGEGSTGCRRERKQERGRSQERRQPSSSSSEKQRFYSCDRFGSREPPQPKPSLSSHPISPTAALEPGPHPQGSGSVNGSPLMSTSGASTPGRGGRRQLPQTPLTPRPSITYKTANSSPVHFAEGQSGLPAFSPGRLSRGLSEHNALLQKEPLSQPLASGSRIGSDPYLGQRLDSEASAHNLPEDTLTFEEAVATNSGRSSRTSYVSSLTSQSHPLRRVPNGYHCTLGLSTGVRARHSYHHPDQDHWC
protocolNotes: N-type calcium channel block, whole cell patch clamp in HEK 293 cells
Type: cell-based
studyConditions: pulse frequency 0.2 Hz (frequency dependent block), holding −80 mV to +10 mV, 5 mM Ba; read-out: IC50 at 0.2 Hz
assayMetric: IC50 (nM)

For orientation, consider the following solved cases.
compound	IC50, nM
c1ccc(C(c2ccccc2)N2CCC(CN(CCN(c3ccccc3)c3ccccc3)CCN(c3ccccc3)c3ccccc3)C2)cc1 (stereo not drawn)	2000
COc1cc(C(=O)N2CCC(CN(C)CCCCCC(c3ccc(F)cc3)c3ccc(F)cc3)C2)cc(OC)c1OC (stereo not drawn)	330
O=C(NCC1CCN(C(c2ccccc2)c2ccccc2)C1)NC(c1ccccc1)c1ccccc1 (stereo not drawn)	185
CN(C(=O)CN(CC(=O)N(C)c1ccccc1)CC1CCN(C(c2ccccc2)c2ccccc2)C1)c1ccccc1 (stereo not drawn)	45
COc1cc(C(=O)NCC2CCN(CCCCCC(c3ccc(F)cc3)c3ccc(F)cc3)C2)cc(OC)c1OC (stereo not drawn)	280
O=C(CC(c1ccccc1)c1ccccc1)NCC1CCN(C(c2ccccc2)c2ccccc2Cl)C1 (stereo not drawn)	8

(P) O=C(CN(c1ccccc1)c1ccccc1)NCC1CCN(C(c2ccccc2)c2ccccc2)C1 (stereo not drawn)
(Q) O=C(NCC1CCN(CCCCCC(c2ccc(F)cc2)c2ccc(F)cc2)C1)c1cc(C(F)(F)F)cc(C(F)(F)F)c1 (stereo not drawn)
(R) COc1cc(CN(C)CC2CCN(C(=O)CCCCC(c3ccc(F)cc3)c3ccc(F)cc3)C2)cc(OC)c1OC (stereo not drawn)
(S) O=C(COc1ccc(Cl)cc1)NCC1CCN(C(=O)CCCCC(c2ccc(F)cc2)c2ccc(F)cc2)C1 (stereo not drawn)
(T) O=C(CC(c1ccccc1)c1ccccc1)N1CCC(CNC(c2ccccc2)c2ccccc2)C1 (stereo not drawn) [Compound P2]
## Input Rank ascending by IC50. Your answer should be the labels, listed in the requested order.
## Output S, R, Q, P, T

(a) O=C(COc1ccc(F)cc1F)NCC1CCN(C(=O)CCCCC(c2ccc(F)cc2)c2ccc(F)cc2)C1 (stereo not drawn)
(b) O=C(NCC1CCN(C(=O)CCCCC(c2ccc(F)cc2)c2ccc(F)cc2)C1)c1cc(C(F)(F)F)cc(C(F)(F)F)c1 (stereo not drawn) [Compound P49]
(c) O=C(CC(c1ccccc1)c1ccccc1)NCC1CCN(C(c2ccccc2)c2cccc(Cl)c2)C1 (stereo not drawn)
## Input Ordering criterion: IC50; begin with the maximum. Your answer should be the labels, listed in the requested order.
## Output a, b, c

Where these numbers come from: patent US7244758B2
